Data credit: patent US9132130B2

Test system: B16F10 cells (mouse melanoma [malignant melanoma] cells)
GI50 vs 300 nM: less than gives Criterion met; not less than gives Criterion not met.

### Prompt Is 300 nM strictly greater than the molecule's reported GI50? molecule: `CCOc1ccc(CSc2nc(N3CCOCC3)c3nc(CC)n(C)c3n2)cc1F`
### Response Criterion not met

### Prompt Is 300 nM strictly greater than the molecule's reported GI50? molecule: `COc1ccc(CSc2nc(-c3ccsc3)c3ncn(C)c3n2)cc1`
### Response Criterion met

### Prompt Is 300 nM strictly greater than the molecule's reported GI50? molecule: `C=Cc1ccc(CSc2nc(N3CCOCC3)c3nc(CC)n(C)c3n2)cc1`
### Response Criterion not met

### Prompt Is 300 nM strictly greater than the molecule's reported GI50? molecule: `COc1ccc(CSc2nc(N3CCOCC3)c3ncn(C)c3n2)cc1C#N`
### Response Criterion met

### Prompt Is 300 nM strictly greater than the molecule's reported GI50? molecule: COc1ccc(CNc2nc(N3CCOCC3)c3ncn(C)c3n2)cc1 [Compound B, reference compound]
### Response Criterion not met

### Prompt Is 300 nM strictly greater than the molecule's reported GI50? molecule: `CNc1nc(SCc2ccc(OC)c(N)c2)nc2c1ncn2C`
### Response Criterion met

### Prompt Is 300 nM strictly greater than the molecule's reported GI50? molecule: `CCc1nc2c(N3CCOCC3)nc(SCc3ccc(OC)c(F)c3)nc2n1C`
### Response Criterion not met

### Prompt Is 300 nM strictly greater than the molecule's reported GI50? molecule: `CCc1nc2c(N3CCOCC3)nc(SCc3ccc(I)cc3)nc2n1C`
### Response Criterion not met

### Prompt Is 300 nM strictly greater than the molecule's reported GI50? molecule: `C/C=C/c1nc(SCc2ccc(OC)c([N+](=O)[O-])c2)nc2c1ncn2C`
### Response Criterion not met

### Prompt Is 300 nM strictly greater than the molecule's reported GI50? molecule: `CCOc1ccc(CSc2nc(N3CCOCC3)c3nc(CC)n(C)c3n2)cc1N`
### Response Criterion not met

### Prompt Is 300 nM strictly greater than the molecule's reported GI50? molecule: `CCCn1c(CC)nc2c(N3CCOCC3)nc(SCc3ccc(OC)cc3)nc21`
### Response Criterion not met

====

Test system PC-3 cells (human prostate cancer cells), GI50 listed for each of the molecules.

[
  {
    "molecule.smiles": "CCc1nc2c(N3CCOCC3)nc(SCc3ccc(OC)c(F)c3)nc2n1C",
    "GI50": "0.16 µM"
  },
  {
    "molecule.smiles": "COc1ccc(CSc2nc(N3C=COCC3)c3ncn(C)c3n2)cc1",
    "GI50": "0.12 µM"
  },
  {
    "molecule.smiles": "CCc1nc2c(N3CCOCC3)nc(SCc3ccc(OC)c(N)c3)nc2n1C",
    "GI50": "0.1 µM"
  }
]

### Prompt Report the value of GI50 obtained on PC-3 cells (human prostate cancer cells) for `CCOc1ccc(CSc2nc(N3CCOCC3)c3nc(CC)n(C)c3n2)cc1` .
### Response 0.46 µM

### Prompt Report the value of GI50 obtained on PC-3 cells (human prostate cancer cells) for `CCc1nc2c(N3CCOCC3)nc(SCc3ccc(C)c(F)c3)nc2n1C` .
### Response 0.4 µM

====

Test system B16F10 cells (mouse melanoma [malignant melanoma] cells), GI50 listed for each of the molecules.
Could you give me the number in nM? Just the number is fine.

[
  {
    "molecule": "Sc1ncnc2nc[nH]c12 [Compound A, 6-mercaptopurine, reference compound]",
    "quantity.unit": "nM",
    "GI50": 22600
  }
]

### Prompt Report the value of GI50 obtained on B16F10 cells (mouse melanoma [malignant melanoma] cells) for `COc1ccc(CSc2nc(-n3cccc3)c3ncn(C)c3n2)cc1` .
### Response 510

### Prompt Report the value of GI50 obtained on B16F10 cells (mouse melanoma [malignant melanoma] cells) for `CCc1nc2c(N3CCOCC3)nc(SCc3ccc(OC)c(C#N)c3)nc2n1CC` .
### Response 140

### Prompt Report the value of GI50 obtained on B16F10 cells (mouse melanoma [malignant melanoma] cells) for `CCc1nc2c(N3CCOCC3)nc(SCc3ccc(OC)c(N)c3)nc2n1C` .
### Response 300

### Prompt Report the value of GI50 obtained on B16F10 cells (mouse melanoma [malignant melanoma] cells) for `CCOc1ccc(CSc2nc(N3CCOCC3)c3nc(CC)n(CC)c3n2)cc1N` .
### Response 300

====

Test system PC-3 cells (human prostate cancer cells), GI50 listed for each of the compounds.
Could you give me the number in nM? Just the number is fine.

Solved entries:
[
  {
    "compound": "CCc1nc2c(N3CCOCC3)nc(SCc3ccc(OC)c(C#N)c3)nc2n1C",
    "study.target": "PC-3 cells (human prostate cancer cells)",
    "quantity.unit": "nM",
    "observed.measurement": 100
  },
  {
    "compound": "CCOc1ccc(CSc2nc(N(C)C)c3ncn(C)c3n2)cc1N",
    "study.target": "PC-3 cells (human prostate cancer cells)",
    "quantity.unit": "nM",
    "observed.measurement": 110
  },
  {
    "compound": "CCc1nc2c(N3CCN(N=O)C(C)C3)nc(SCc3ccc(OC)cc3)nc2n1C (stereo in doubt)",
    "study.target": "PC-3 cells (human prostate cancer cells)",
    "quantity.unit": "nM",
    "observed.measurement": 640
  },
  {
    "compound": "CCc1nc2c(N3CCOCC3)nc(SCc3ccc(OC)c(N)c3)nc2n1CC",
    "study.target": "PC-3 cells (human prostate cancer cells)",
    "quantity.unit": "nM",
    "observed.measurement": 120
  },
  {
    "compound": "CCN(C)c1nc(SCc2ccc(OC)cc2)nc2c1ncn2C",
    "study.target": "PC-3 cells (human prostate cancer cells)",
    "quantity.unit": "nM",
    "observed.measurement": 560
  },
  {
    "compound": "CCOc1ccc(CSc2nc(NC)c3ncn(C)c3n2)cc1N",
    "study.target": "PC-3 cells (human prostate cancer cells)",
    "quantity.unit": "nM",
    "observed.measurement": 50
  },
  {
    "compound": "CCN(CC)c1nc(SCc2ccc(OC)cc2)nc2c1ncn2C",
    "study.target": "PC-3 cells (human prostate cancer cells)",
    "quantity.unit": "nM",
    "observed.measurement": 1130
  },
  {
    "compound": "C=Cc1nc(SCc2ccc(OC)cc2)nc2c1ncn2C",
    "study.target": "PC-3 cells (human prostate cancer cells)",
    "quantity.unit": "nM",
    "observed.measurement": 3200
  }
]

Now consider the entry below.
### Prompt Report the value of GI50 obtained on PC-3 cells (human prostate cancer cells) for `COc1ccc(CSc2nc(N(C)C)c3ncn(C)c3n2)cc1F` .
### Response 50

====

System: B16F10 cells (mouse melanoma [malignant melanoma] cells)
GI50 vs 1000 nM: less than gives t; not less than gives f.

Look over these answered cases.
[
  {
    "molecule": "CCNc1nc(SCc2ccc(OC)c(F)c2)nc2c1ncn2C [Compound 91]",
    "label.value": "t"
  },
  {
    "molecule": "CCNc1nc(SCc2ccc(OC)cc2)nc2c1ncn2C [Compound 64]",
    "label.value": "t"
  },
  {
    "molecule": "COc1ccc(CSc2nc(N3C=COCC3)c3ncn(C)c3n2)cc1[N+](=O)[O-] [Compound 149]",
    "label.value": "f"
  },
  {
    "molecule": "COc1ccc(CSc2nc(-c3ccc([N+](=O)[O-])cc3)c3ncn(C)c3n2)cc1 [Compound 166]",
    "label.value": "f"
  },
  {
    "molecule": "CCOc1ccc(CSc2nc(N3C=COCC3)c3ncn(CC)c3n2)cc1[N+](=O)[O-] [Compound 155]",
    "label.value": "f"
  },
  {
    "molecule": "CCOc1ccc(CSc2nc(N3CCOCC3)c3nc(CC)n(C)c3n2)cc1 [Compound 17]",
    "label.value": "f"
  }
]

### Prompt Is 1000 nM strictly greater than the molecule's reported GI50? molecule: C/C=C/c1nc(SCc2ccc(OC)cc2)nc2c1ncn2C [Compound 163]
### Response t

### Prompt Is 1000 nM strictly greater than the molecule's reported GI50? molecule: COc1ccc(CSc2nc(N3CCOCC3)c3ncn(C)c3n2)cc1F [Compound 83]
### Response t

### Prompt Is 1000 nM strictly greater than the molecule's reported GI50? molecule: COc1ccc(CSc2nc(N3CCOCC3)c3ncn(C)c3n2)cc1 [Compound 9]
### Response f

### Prompt Is 1000 nM strictly greater than the molecule's reported GI50? molecule: CCc1nc2c(N3CCOCC3)nc(SC(c3ccccc3)c3ccccc3)nc2n1C [Compound 100]
### Response f
